molecular target: High affinity choline transporter 1 (Homo sapiens); test: human choline transporter blockers, potency – cell-based, 5-point CRC, membrane potential dye, dose response (AID 504840); format: functional
Sequence (Q9GZV3 whole entry): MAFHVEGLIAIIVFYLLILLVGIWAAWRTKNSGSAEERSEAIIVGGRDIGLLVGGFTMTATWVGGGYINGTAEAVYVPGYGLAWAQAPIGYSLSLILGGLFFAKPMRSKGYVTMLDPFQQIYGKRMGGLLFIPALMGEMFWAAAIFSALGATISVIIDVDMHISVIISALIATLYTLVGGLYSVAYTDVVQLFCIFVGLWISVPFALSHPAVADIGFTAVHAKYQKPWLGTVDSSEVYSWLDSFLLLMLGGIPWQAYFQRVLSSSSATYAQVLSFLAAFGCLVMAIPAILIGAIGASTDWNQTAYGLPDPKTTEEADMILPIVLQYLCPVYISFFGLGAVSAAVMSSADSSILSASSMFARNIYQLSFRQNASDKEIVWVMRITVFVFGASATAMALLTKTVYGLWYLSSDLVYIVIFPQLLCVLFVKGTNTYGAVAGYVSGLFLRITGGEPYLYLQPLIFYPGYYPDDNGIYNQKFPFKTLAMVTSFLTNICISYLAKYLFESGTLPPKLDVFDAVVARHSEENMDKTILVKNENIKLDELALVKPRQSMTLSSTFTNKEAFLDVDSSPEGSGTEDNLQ
Activity calls are given as the source filed them.
Catalogue of molecules with associated IC50
experimental_readout: IC50

Cc1ccc(-c2csc(NC(=O)c3cccc(C)c3)c2C(=O)O)cc1; 11.8 µM (active)
O=C(Nc1ccc(S(=O)(=O)Nc2cnc3ccccc3n2)cc1)c1ccc(Cl)cc1Cl; 9.55 µM (active)
S=C(NCC1CCCO1)Nc1cc(Cl)c(Cl)cc1Cl (centres undefined); 14.5 µM (active)
C=C(C)CSc1nnc(CCCCCNC(=O)OC(C)(C)C)o1; 6.92 µM (active)
c1ccc(CCNc2c3c(nc4ncnn24)CCC3)cc1; 10.1 µM (active)
Cc1ccc(C(=O)O)cc1NC(=S)NC(=O)c1ccc(COc2ccccc2)cc1; 15.5 µM (active)
COc1cc(C(=O)NC2CC(C)(C)CC(C)(C)C2)ccc1OC1CCN(C(C)=O)CC1; 13.8 µM (active)
CCOC(=O)c1sc(NC(=O)CCN2C(=O)c3cccc([N+](=O)[O-])c3C2=O)c(C(=O)OCC)c1C; 5.98 µM (active)
O=c1oc2ccccc2c(Cl)c1CN1CCCCC1; 10 µM (active)

---

target: Large T antigen (Simian virus 40, UniProt P03070); type: functional, Betapolyomavirus macacae;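 note: Confirmatory-stage PubChem screen for compounds that inhibit SV40 T antigen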
Sequence (P03070 whole entry): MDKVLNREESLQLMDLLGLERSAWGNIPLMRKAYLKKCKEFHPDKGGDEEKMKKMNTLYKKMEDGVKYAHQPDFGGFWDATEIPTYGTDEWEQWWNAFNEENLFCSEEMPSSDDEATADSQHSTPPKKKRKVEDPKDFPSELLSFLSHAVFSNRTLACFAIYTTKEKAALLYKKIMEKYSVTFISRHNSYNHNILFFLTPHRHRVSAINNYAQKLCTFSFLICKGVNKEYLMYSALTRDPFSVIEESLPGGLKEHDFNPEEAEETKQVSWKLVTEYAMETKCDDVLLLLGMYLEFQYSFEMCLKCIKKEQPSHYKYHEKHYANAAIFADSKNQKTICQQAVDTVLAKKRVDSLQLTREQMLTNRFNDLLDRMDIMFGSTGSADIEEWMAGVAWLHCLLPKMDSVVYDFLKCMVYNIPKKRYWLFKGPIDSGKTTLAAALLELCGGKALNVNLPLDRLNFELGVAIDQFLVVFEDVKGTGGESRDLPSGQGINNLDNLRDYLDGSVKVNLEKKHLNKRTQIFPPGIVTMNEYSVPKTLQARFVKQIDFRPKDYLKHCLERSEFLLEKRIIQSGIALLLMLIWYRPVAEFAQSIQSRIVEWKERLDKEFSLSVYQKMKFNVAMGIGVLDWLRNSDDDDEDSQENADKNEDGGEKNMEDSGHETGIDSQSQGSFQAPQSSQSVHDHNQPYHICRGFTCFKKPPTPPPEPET
Activity calls are given as the source filed them.
experimental_readout: IC50

COc1cnc(-c2ccccn2)nc1Oc1ccc(Cl)c2ccccc12; 7.48 µM (active)
Nc1ccc2c(c1)-c1ccccc1S(=O)(=O)N2; 3.99 µM (active)
O=C1NC(=O)N(c2ccccc2)C(=O)/C1=C\c1ccc2c3c(cccc13)CC2; 68.4 µM (active)
COc1ccc(C2=CC3=C(Br)C(=O)C(C)(OC(=O)c4ccc(Cl)nc4)C(=O)C3=CO2)cc1 (centres undefined); 56.7 µM (active)
CN(C)c1ccc(NC(=O)Cn2ncn3c(cc4ccccc43)c2=O)cc1; 29.6 µM (active)
Cc1cccc(C)c1NC(=O)CSCC(=O)c1ccc(O)c(O)c1; 12.8 µM (active)
O=C(CCn1cnc2ccccc21)N/N=C/c1ccc(O)cc1; 14.2 µM (active)
CC1(C)CC(=O)C(/C=N/c2ccc(O)cc2)=C(O)C1; 5.53 µM (active)
CSc1nc(Cl)cc(Nc2ccc(O)cc2)n1; 17.8 µM (active)

---

target: Streptokinase A (Streptococcus pyogenes serotype M1, UniProt P10520); test: viability-normalized secreted streptokinase activity reduction – plasminogen activation absorbance, OD405, dose response (AID 1914); assay type: functional, Streptococcus pyogenes M1 GAS;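 note: secreted streptokinase activity via plasminogen activation per viability signal from cell pellet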
Sequence (P10520 whole entry): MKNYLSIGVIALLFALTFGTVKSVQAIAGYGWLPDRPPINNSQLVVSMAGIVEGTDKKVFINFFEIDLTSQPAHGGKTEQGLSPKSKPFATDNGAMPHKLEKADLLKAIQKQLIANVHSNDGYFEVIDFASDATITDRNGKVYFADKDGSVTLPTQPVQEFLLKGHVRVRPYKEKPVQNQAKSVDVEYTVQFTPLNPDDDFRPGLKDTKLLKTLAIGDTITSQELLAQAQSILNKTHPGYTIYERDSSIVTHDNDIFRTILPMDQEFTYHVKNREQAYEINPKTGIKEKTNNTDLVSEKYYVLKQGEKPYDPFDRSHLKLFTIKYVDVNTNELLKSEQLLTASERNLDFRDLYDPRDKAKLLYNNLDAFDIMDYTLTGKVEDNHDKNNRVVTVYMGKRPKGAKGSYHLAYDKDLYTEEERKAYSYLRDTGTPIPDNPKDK
The source made the active and inactive calls.
experimental_readout: EC50

COc1ccc(OC)c(-n2c(C)cc(/C=C3\C(=N)N4N=C(CC(=O)N5CCOCC5)SC4=NC3=O)c2C)c1; > 150 µM (not active)
Cc1cc(C)n(C(=O)/C(C#N)=N/Nc2cc(Cl)cc(Cl)c2)n1; > 150 µM (not active)
Cc1ccc(N2C(=O)/C(=C\Nc3ccccc3-c3nnc(S)nc3O)c3ccccc3C2=O)cc1C; > 150 µM (not active)
COc1cnc(-c2ccccn2)nc1Oc1ccc(Cl)c2ccccc12; > 150 µM (not active)
Cc1ccc(C23CC4CC(CC(C(=O)N5CCN(C)CC5)(C4)C2)C3)cc1; > 150 µM (not active)
FC(F)(F)c1cc(Nc2ccccc2)nc(-c2ccccn2)n1; > 150 µM (not active)
Cc1cc(Cl)c2oc(C(=O)N3CCN(C(=O)c4ccco4)CC3)c(C)c2c1; > 150 µM (not active)
CC(=O)C1=C(c2ccc(Br)cc2)C(=O)c2ccccc2C1=O; 7.12 µM (active)
COc1ccc(CN(C)S(=O)(=O)c2nnc(NC(=O)c3ccccc3Br)s2)cc1; 9.36 µM (active)
CN(C(=O)CSc1nc(-c2ccc(C(C)(C)C)cc2)c(C#N)c(=O)[nH]1)C1CCCCC1; > 150 µM (not active)
